Measured IC50, listed per entry.
System Under Test: UGT1A9 in human liver microsomes (Homo sapiens, UniProt O60656)
Sequence (O60656 26-530): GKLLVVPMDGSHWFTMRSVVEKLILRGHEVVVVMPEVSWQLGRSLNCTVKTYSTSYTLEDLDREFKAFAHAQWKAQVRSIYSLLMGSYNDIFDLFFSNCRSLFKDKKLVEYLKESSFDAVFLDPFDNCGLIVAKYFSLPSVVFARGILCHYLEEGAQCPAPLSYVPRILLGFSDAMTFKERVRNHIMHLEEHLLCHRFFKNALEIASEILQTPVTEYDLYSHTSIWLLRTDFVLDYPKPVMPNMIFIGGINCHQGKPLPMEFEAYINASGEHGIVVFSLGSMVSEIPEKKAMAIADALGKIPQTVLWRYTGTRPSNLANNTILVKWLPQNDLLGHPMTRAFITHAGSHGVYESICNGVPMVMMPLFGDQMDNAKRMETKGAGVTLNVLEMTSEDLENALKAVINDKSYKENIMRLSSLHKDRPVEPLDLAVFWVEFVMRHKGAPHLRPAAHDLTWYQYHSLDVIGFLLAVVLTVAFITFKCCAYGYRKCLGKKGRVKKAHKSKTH
Assay Text: biochemical
Run Parameters: IC50,u (binding-corrected IC50), probe substrate propofol; HLM
Reported Metric: IC50 (nM)

INSERT INTO assay_data (molecule_smiles, system_under_test, units, observed_value) VALUES
  ('CCCCCc1cc(O)c2c(c1)OC(C)(C)c1ccc(C)cc1-2', 'UGT1A9 in human liver microsomes (Homo sapiens, UniProt O60656)', 'nM', 2900),
  ('C=C(C)[C@@H]1CCC(C)=C[C@H]1c1c(O)cc(CCCCC)cc1O', 'UGT1A9 in human liver microsomes (Homo sapiens, UniProt O60656)', 'nM', 1000);
